# TARGET_SYSTEM: wild type PKM2 (Homo sapiens)
# Sequence (P14618 whole entry): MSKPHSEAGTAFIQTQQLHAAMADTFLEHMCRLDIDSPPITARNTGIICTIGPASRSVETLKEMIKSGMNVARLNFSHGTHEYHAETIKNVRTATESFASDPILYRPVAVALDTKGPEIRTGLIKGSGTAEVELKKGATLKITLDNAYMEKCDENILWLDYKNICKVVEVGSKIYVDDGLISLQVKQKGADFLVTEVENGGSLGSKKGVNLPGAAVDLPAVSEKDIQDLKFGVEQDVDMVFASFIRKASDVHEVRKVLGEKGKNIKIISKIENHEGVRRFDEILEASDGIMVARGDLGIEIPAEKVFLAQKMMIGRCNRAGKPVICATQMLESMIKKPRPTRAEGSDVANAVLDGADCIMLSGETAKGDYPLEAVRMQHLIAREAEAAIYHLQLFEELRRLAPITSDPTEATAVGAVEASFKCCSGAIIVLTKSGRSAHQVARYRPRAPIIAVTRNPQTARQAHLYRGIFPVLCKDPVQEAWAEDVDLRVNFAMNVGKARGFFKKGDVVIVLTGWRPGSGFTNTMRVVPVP
# PROCEDURE_TEXT: PKM2 Assay (LDH/NADH-coupled, absorbance at 340 nm)
# Type: biochemical
# REPORTED_CONDITIONS: wild type PKM2 activation; 60 min preincubation at 25° C.; ADP 0.4 mM, PEP 0.11 mM; read-out: PKM2 WT AC50
The reader will find reported AC50 values listed item by item below.
QUANTITY: AC50

{"MOLECULE": "C=Cc1nc2c(s1)c1cnn(Cc3cccc4[nH]ncc34)c(=O)c1n2C", "OBSERVED_MEASUREMENT": "< 300 nM"}
{"MOLECULE": "Cn1c2nc(Cc3cc[nH]n3)sc2c2cnn(Cc3csc(CO)n3)c(=O)c21", "OBSERVED_MEASUREMENT": "< 300 nM"}
{"MOLECULE": "Cn1c2nc(Cc3cc[nH]n3)sc2c2cnn(Cc3cccc4c3CCN4)c(=O)c21", "OBSERVED_MEASUREMENT": "< 300 nM"}
{"MOLECULE": "Cn1c2nc(Cc3cc[nH]n3)sc2c2cnn(Cc3ccc(C#N)cn3)c(=O)c21", "OBSERVED_MEASUREMENT": "301 to 800 nM"}
{"MOLECULE": "Cn1c2nc(SCc3ccccc3)sc2c2cnn(Cc3cccc4[nH]ncc34)c(=O)c21", "OBSERVED_MEASUREMENT": "301 to 800 nM"}
{"MOLECULE": "Cn1ccc(Cn2ncc3c4sc(Cc5cc[nH]n5)nc4n(C)c3c2=O)n1", "OBSERVED_MEASUREMENT": "< 300 nM"}
{"MOLECULE": "Cn1c2nc(Cc3ccncc3)sc2c2cnn(Cc3cccc4[nH]ncc34)c(=O)c21", "OBSERVED_MEASUREMENT": "> 800 nM"}
{"MOLECULE": "Cn1c2nc(Cc3cc[nH]n3)sc2c2cnn(Cc3nccc(N)n3)c(=O)c21", "OBSERVED_MEASUREMENT": "< 300 nM"}
{"MOLECULE": "CCOC(=O)c1cccc(Cn2ncc3c4sc(C)nc4n(C)c3c2=O)c1", "OBSERVED_MEASUREMENT": "301 to 800 nM"}
{"MOLECULE": "Cn1c2nc(Cn3cnnc3)sc2c2cnn(Cc3cc[nH]n3)c(=O)c21", "OBSERVED_MEASUREMENT": "> 800 nM"}
{"MOLECULE": "Cn1c2nc(Nc3ccccc3)sc2c2cnn(Cc3cccc4[nH]ncc34)c(=O)c21", "OBSERVED_MEASUREMENT": "> 800 nM"}
{"MOLECULE": "Cn1c2nc(Cn3ccnc3)sc2c2cnn(Cc3cccc4[nH]ncc34)c(=O)c21", "OBSERVED_MEASUREMENT": "< 300 nM"}
{"MOLECULE": "Cn1c2nc(Cc3ccc(=O)[nH]c3)sc2c2cnn(Cc3cccc4[nH]ncc34)c(=O)c21", "OBSERVED_MEASUREMENT": "> 800 nM"}
{"MOLECULE": "CCn1c2nc(Cc3cc[nH]n3)sc2c2cnn(Cc3ccccc3)c(=O)c21", "OBSERVED_MEASUREMENT": "> 800 nM"}
{"MOLECULE": "Cn1c2nc(Cn3cncn3)sc2c2cnn(Cc3n[nH]c(=O)[nH]3)c(=O)c21", "OBSERVED_MEASUREMENT": "> 800 nM"}
{"MOLECULE": "Cc1nc2c(s1)c1cnn(Cc3ccc4[nH]c(=O)[nH]c4c3)c(=O)c1n2C", "OBSERVED_MEASUREMENT": "> 800 nM"}
{"MOLECULE": "CSc1nc2c(s1)c1cnn(Cc3cccc(S(N)(=O)=O)c3)c(=O)c1n2C", "OBSERVED_MEASUREMENT": "301 to 800 nM"}
{"MOLECULE": "CSc1nc2c(s1)c1cnn(Cc3ccnc(=O)[nH]3)c(=O)c1n2C", "OBSERVED_MEASUREMENT": "> 800 nM"}
{"MOLECULE": "Cn1c2nc(-n3cnc(CS(=O)(=O)c4ccccc4)c3)sc2c2cnn(Cc3cccc4[nH]ncc34)c(=O)c21", "OBSERVED_MEASUREMENT": "> 800 nM"}
{"MOLECULE": "COC(=O)C(c1ccccc1)c1nc2c(s1)c1cnn(Cc3cccc4[nH]ncc34)c(=O)c1n2C (stereo not shown)", "OBSERVED_MEASUREMENT": "< 300 nM"}
{"MOLECULE": "Cn1c2nc(Cc3cc[nH]c(=O)c3)sc2c2cnn(Cc3cccc4[nH]ncc34)c(=O)c21", "OBSERVED_MEASUREMENT": "< 300 nM"}
{"MOLECULE": "CC(=O)Nc1ccc(F)c(Cn2ncc3c4sc(Cc5cc[nH]n5)nc4n(C)c3c2=O)n1", "OBSERVED_MEASUREMENT": "< 300 nM"}
{"MOLECULE": "Cn1c2nc(Cc3cc[nH]n3)sc2c2cnn(Cc3cccc4[nH]ncc34)c(=O)c21", "OBSERVED_MEASUREMENT": "< 300 nM"}
{"MOLECULE": "O=c1c2c(cnn1Cc1ccccc1)c1sc(Cc3ccccn3)nc1n2-c1ccccc1", "OBSERVED_MEASUREMENT": "> 800 nM"}
{"MOLECULE": "COC(=O)c1nc2c(s1)c1cnn(Cc3cccc(OC)c3)c(=O)c1n2C", "OBSERVED_MEASUREMENT": "301 to 800 nM"}
{"MOLECULE": "Cn1c2nc(Cc3ccc(C(N)=O)cc3)sc2c2cnn(Cc3cccc4[nH]ncc34)c(=O)c21", "OBSERVED_MEASUREMENT": "> 800 nM"}
{"MOLECULE": "Cn1c2nc(Cc3cc[nH]n3)sc2c2cnn(Cc3ncns3)c(=O)c21", "OBSERVED_MEASUREMENT": "< 300 nM"}
{"MOLECULE": "Cn1cc(CN)c(Cn2ncc3c4sc(Cc5cc[nH]n5)nc4n(C)c3c2=O)n1", "OBSERVED_MEASUREMENT": "301 to 800 nM"}
{"MOLECULE": "Cc1nc2c(s1)c1cnn(CCCO)c(=O)c1n2C", "OBSERVED_MEASUREMENT": "> 800 nM"}
{"MOLECULE": "COc1cccc(Cn2ncc3c4sc(C(=O)c5cccc(O)c5)nc4n(C)c3c2=O)c1", "OBSERVED_MEASUREMENT": "< 300 nM"}
{"MOLECULE": "Cn1nncc1Cn1ncc2c3sc(Cc4cc[nH]n4)nc3n(C)c2c1=O", "OBSERVED_MEASUREMENT": "< 300 nM"}
{"MOLECULE": "Cc1cccc(Cn2ncc3c4sc(Cc5cc[nH]n5)nc4n(C)c3c2=O)n1", "OBSERVED_MEASUREMENT": "< 300 nM"}
{"MOLECULE": "Cn1c2nc(Cc3ccccn3)sc2c2cnn(Cc3cc[nH]n3)c(=O)c21", "OBSERVED_MEASUREMENT": "< 300 nM"}
{"MOLECULE": "COc1ncc(Cc2nc3c(s2)c2cnn(Cc4cccc5[nH]ncc45)c(=O)c2n3C)cn1", "OBSERVED_MEASUREMENT": "< 300 nM"}
